Source of measurements: patent US20240382471A1

target: GLP1R (Homo sapiens); assay: GLP1R cAMP assay (HTRF cAMP detection, agonist activity); assay type: cell-based; parameters: host or cells: Flp-In-293; conditions: Flp-In-293-GLP1R cells, 30 min at 37° C., read-out: EC50 (nM) Assay 1
Sequence (P43220 24-463, species assumed): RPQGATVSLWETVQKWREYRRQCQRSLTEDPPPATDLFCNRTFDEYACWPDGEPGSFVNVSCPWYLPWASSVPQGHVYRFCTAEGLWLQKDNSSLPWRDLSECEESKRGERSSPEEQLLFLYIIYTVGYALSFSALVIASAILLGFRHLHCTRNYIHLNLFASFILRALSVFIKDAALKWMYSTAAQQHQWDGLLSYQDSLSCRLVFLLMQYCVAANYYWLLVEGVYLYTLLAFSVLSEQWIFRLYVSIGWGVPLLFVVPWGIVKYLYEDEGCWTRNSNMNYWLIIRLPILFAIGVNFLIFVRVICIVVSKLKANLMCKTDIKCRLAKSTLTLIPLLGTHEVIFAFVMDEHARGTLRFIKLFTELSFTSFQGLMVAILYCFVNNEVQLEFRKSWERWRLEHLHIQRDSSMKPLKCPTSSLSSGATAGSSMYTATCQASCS
propertyLabel: EC50 (nM)

As a guide, the following entries are already answered.
N#Cc1ccc(COc2cccc(C34CCN(Cc5nc6ccc(C(=O)O)cc6n5C[C@@H]5CCO5)CC3C4)n2)c(F)c1 (stereo partly shown) [Compound 1-1] :: 0.029
N#Cc1ccc(COc2cccc(C34CCN(Cc5nc6c(F)cc(C(=O)O)cc6n5C[C@@H]5CCO5)CC3C4)n2)c(F)c1 (single isomer, unassigned) [Compound 1-10-A] :: 0.009
N#Cc1ccc(COc2cccc(C34CCN(Cc5nc6c(F)cc(C(=O)O)cc6n5C[C@@H]5CCO5)CC3C4)n2)c(F)c1 (stereo partly shown) [Compound 1-10] :: 0.047

A = N#Cc1ccc(COc2cccc(N3CC4CN(Cc5nc6ccc(C(=O)O)cc6n5C[C@@H]5CCO5)CC4C3)n2)cc1 (stereo partly shown)
B = Cc1ccc(COc2cccc(N3C4CCC3CN(Cc3nc5ccc(C(=O)O)cc5n3C[C@@H]3CCO3)C4)n2)c(F)c1
Prompt line: Select one: A or B . Criterion: greater recorded EC50. Give the label of your selection.
Response line: A
(A: 2 nM, B: 0.929 nM)

a = N#Cc1ccc(COc2cccc(N3C4CCC3CN(Cc3nc5ccc(C(=O)O)cc5n3C[C@@H]3CCO3)C4)n2)c(F)c1
b = O=C(O)c1ccc2nc(CN3CCC4(c5cccc(OCc6ccc(C(F)(F)F)cc6F)n5)CC4C3)n(C[C@@H]3CCO3)c2c1 (stereo partly shown)
Prompt line: Between a and b , which one shows the smaller EC50 number? Give the label of your selection.
Response line: b

---

molecular target: GLP1R (Homo sapiens, UniProt P43220); assay: GLP1R/CRE-Luc luciferase reporter gene assay (agonist activity); format: cell-based; set-up: host or cells: HKE293 (so in the source); conditions: HKE293-Human GLP1R/CRE-luc cells, 5 h at 37° C., read-out: EC50 (nM) Assay 2
Sequence (P43220 24-463): as the sequence (P43220 24-463, species assumed) above
propertyLabel: EC50 (nM)

CCn1cncc1Cn1c(CN2CCC3(c4nccc(OCc5ccc(C(F)(F)F)cc5OC)n4)CC3C2)nc2c(OC)cc(C(=O)O)cc21 (stereo not drawn) [Compound 1-48] :: 0.33
COc1cc(C#N)ccc1COc1cccc(C23CCN(Cc4nc5c(C#N)cc(C(=O)O)cc5n4C[C@@H]4CCO4)CC2C3)n1 (stereo partly drawn) [Compound 1-17] :: 6.66
COc1cc(Cl)ccc1COc1ccnc(C23CCN(Cc4nc5c(OC)cc(C(=O)O)cc5n4C[C@@H]4CCO4)CC2C3)n1 (stereo partly drawn) [Compound 1-47] :: 3.85

1 = COc1cc(C#N)ccc1COc1ccnc(C23CCN(Cc4nc5c(Cl)cc(C(=O)O)cc5n4C[C@@H]4CCO4)CC2C3)n1 (stereo partly drawn) [Compound 1-46]
2 = COc1cc(C#N)ccc1COc1nc(C23CCN(Cc4nc5ccc(C(=O)O)cc5n4C[C@@H]4CCO4)CC2C3)ncc1F (stereo partly drawn) [Compound 1-31]
Prompt line: Between 1 and 2 , which one shows the smaller EC50 number? Give the label of your selection.
Response line: 1
